- TARGET_OF_ASSAY: UniProtKB A0A8M9PIT7
- ASSAY_SUMMARY: two-electrode voltage clamp, peak inward current, Hill fit
PROPERTY_NAME: pEC50
On this scale, pEC50 is minus log10 of a concentration expressed in M (mol/L).

Provide pEC50, recorded with UniProtKB A0A8M9PIT7, of CC(=O)OCC[N+](C)(C)C
4.93

* * *

- TARGET_OF_ASSAY: zebrafish α9α10 (1:2) nAChR (Danio rerio, UniProt A0A8M9PIT7+Q1LY90)
- Sequence (A0A8M9PIT7 20-580): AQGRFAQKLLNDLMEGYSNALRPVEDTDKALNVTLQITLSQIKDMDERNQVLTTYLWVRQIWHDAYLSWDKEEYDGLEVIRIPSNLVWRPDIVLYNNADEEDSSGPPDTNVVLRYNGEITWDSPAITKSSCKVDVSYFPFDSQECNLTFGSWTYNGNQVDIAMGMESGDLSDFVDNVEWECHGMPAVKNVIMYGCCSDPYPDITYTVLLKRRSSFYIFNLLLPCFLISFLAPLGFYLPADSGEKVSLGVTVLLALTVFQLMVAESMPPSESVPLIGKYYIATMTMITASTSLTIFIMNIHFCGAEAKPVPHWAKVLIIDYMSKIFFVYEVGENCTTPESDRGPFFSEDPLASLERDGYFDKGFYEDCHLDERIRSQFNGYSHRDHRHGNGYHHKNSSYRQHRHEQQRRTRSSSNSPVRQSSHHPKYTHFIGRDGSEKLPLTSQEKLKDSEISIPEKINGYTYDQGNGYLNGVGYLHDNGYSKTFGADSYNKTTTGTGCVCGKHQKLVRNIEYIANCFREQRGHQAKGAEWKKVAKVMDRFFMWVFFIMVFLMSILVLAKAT
- Sequence (Q1LY90 26-527): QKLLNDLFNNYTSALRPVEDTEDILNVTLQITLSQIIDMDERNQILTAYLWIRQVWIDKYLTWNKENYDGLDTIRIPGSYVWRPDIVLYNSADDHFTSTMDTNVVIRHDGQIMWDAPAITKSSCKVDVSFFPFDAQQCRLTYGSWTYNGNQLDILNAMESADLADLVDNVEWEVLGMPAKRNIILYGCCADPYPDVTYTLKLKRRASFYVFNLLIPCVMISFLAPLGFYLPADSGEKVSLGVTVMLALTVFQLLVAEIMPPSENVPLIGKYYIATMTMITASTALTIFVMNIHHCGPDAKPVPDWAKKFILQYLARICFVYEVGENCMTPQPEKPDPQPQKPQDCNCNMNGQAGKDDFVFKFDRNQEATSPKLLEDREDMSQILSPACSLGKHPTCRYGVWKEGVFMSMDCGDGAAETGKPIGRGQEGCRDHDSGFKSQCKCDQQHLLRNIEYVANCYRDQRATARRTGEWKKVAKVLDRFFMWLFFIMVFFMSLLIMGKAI
- ASSAY_SUMMARY: two-electrode voltage clamp, peak inward current, Hill fit
PROPERTY_NAME: EC50 (µM)
# unit: µM | format: bare number

Return EC50 for the following compound: CC(=O)OCC[N+](C)(C)C
437
